Exercise: state measured inhibition for each of the compounds provided.
System: LYPLA1
Test: LYPLA1 inhibition and serine hydrolase selectivity, late-stage follow-up, fluorescence, gel-based ABPP, mouse proteome (AID 504520);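 also: soluble proteome from BW5147 murine T cells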
Details: FP-rhodamine fluorescence, inhibition, at 0.15 µM, stronger effect = higher value
One number for each entry, in %.

Record excerpt, results attached:
O=C(N1CCCCC1)n1ncc(C(O)(c2ccccc2)c2ccccc2)n1 :: 100
COc1ccc2cc(-c3cnn(C(=O)N(c4ccccc4)c4ccccc4)n3)ccc2c1 :: 0
CN(C(=O)n1ncc(C(O)(c2ccccc2)c2ccccc2)n1)c1ccccc1 :: 0

// batch mode: one inhibition value per listed entry
1. CC1CCN(C(=O)n2ncc(C(O)(c3ccccc3)c3ccccc3)n2)CC1
2. CC(C)CC(O)(CC(C)C)c1cnn(C(=O)N(c2ccccc2)c2ccccc2)n1
3. CCC1CCCCN1C(=O)n1ncc(C(O)(c2ccccc2)c2ccccc2)n1 (stereo not given)
4. O=C(N(c1ccccc1)c1cccc(Br)c1)n1ncc(C(O)(c2ccccc2)c2ccccc2)n1

Response:
1. 100
2. 0
3. 0
4. 0

// batch mode: one inhibition value per listed entry
1. O=C(N1CCCC(Cc2ccccc2)C1)n1cc(C(O)(c2ccccc2)c2ccccc2)nn1 (stereo not given)
2. COCCCC1CCCCN1C(=O)n1ncc(C(O)(c2ccccc2)c2ccccc2)n1 (stereo not given)
3. O=C(N(c1ccccc1)c1ccc(Br)cc1)n1ncc(C(O)(c2ccccc2)c2ccccc2)n1

Response:
[50, 0, 0]
